- measurementTarget: NAMPT enzyme (Homo sapiens (Human), UniProt P43490)
- Sequence (P43490 whole entry, species assumed): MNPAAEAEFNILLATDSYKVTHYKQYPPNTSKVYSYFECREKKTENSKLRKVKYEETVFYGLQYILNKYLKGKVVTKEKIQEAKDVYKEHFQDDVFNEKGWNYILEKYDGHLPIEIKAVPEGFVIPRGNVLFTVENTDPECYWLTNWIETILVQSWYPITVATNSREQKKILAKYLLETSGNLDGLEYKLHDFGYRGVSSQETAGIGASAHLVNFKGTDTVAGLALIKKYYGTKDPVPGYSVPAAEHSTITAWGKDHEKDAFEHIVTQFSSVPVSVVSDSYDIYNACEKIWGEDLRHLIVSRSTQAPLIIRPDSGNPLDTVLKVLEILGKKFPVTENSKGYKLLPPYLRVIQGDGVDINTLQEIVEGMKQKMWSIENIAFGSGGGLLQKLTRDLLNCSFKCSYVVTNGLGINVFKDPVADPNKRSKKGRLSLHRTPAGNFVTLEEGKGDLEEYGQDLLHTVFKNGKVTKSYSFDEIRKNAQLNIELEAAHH
- assayMethodText: Enzyme Assay and NMN Detection (NAMPT reaction, fluorescence detection of NMN)
- Assay type: biochemical
- testConditions: Table B-2; NAMPT activation, NMN formation
quantityKind: EC50

compound: O=C(NCc1ccccc1)Nc1ccc(NS(=O)(=O)Cc2ccccc2)cc1
readoutValue: < 100 nM
//
compound: O=C(NCc1ccncc1)Nc1ccc(S(=O)(=O)N2CC3CCC(C2)O3)cc1
readoutValue: 100 to 2000 nM
//
compound: O=C(NCc1ccncc1)Nc1ccc(S(=O)(=O)NCCO)cc1
readoutValue: 2000 to 5000 nM
//
compound: CN(C)CCNS(=O)(=O)c1ccc(NC(=O)NCc2ccncc2)cc1
readoutValue: 100 to 2000 nM
//
compound: O=C(NCc1ccncc1)Nc1ccc(S(=O)(=O)N2CCc3cccc(Cl)c3C2)cc1
readoutValue: < 100 nM
//
compound: COc1ccccc1NC(=O)c1ccc(NC(=O)NCc2ccncc2)cc1
readoutValue: 100 to 2000 nM
//
compound: O=C(NCc1ccncc1)Nc1ccc(C(=O)NCc2cccc(F)c2)cc1
readoutValue: > 20000 nM
//
compound: COc1cccc(CNC(=O)c2ccc(NC(=O)NCc3ccncc3)cc2)c1
readoutValue: > 20000 nM
//
compound: O=C(NCc1ccncc1)Nc1ccc(C(=O)NCCO)cc1
readoutValue: > 20000 nM
//
compound: O=C(NCc1ccncc1)Nc1ccc(S(=O)(=O)Nc2nccs2)cc1
readoutValue: 100 to 2000 nM
//
compound: CCCNC(=O)c1ccc(NC(=O)NCc2ccncc2)cc1
readoutValue: 2000 to 5000 nM
//
compound: O=C(NCc1ccncc1)Nc1ccc(S(=O)(=O)NC2CC2)cc1
readoutValue: 2000 to 5000 nM
//
compound: Cc1ccc(NC(=O)c2ccc(NC(=O)NCc3ccncc3)cc2)cc1
readoutValue: 2000 to 5000 nM
//
compound: O=C(NCc1ccncc1)Nc1ccc(S(=O)(=O)Nc2ccccn2)cc1
readoutValue: > 20000 nM
//
compound: CC(C)NC(=O)c1ccc(NC(=O)NCc2ccncc2)cc1
readoutValue: 100 to 2000 nM
//
compound: Cc1cccc(NS(=O)(=O)c2ccc(NC(=O)NCc3ccncc3)cc2)c1
readoutValue: 100 to 2000 nM
//
compound: O=C(NCc1ccncc1)Nc1ccc(Cl)cc1
readoutValue: 5000 to 20000 nM
//
compound: O=C(NCc1ccncc1)Nc1ccc(S(=O)(=O)Nc2ccc(Cl)cc2)cc1
readoutValue: 100 to 2000 nM
//
compound: CC(NS(=O)(=O)c1ccc(NC(=O)NCc2ccncc2)cc1)c1ccccc1 (stereo not drawn)
readoutValue: 100 to 2000 nM
//
compound: O=C(NCc1ccncc1)Nc1ccc(F)cc1
readoutValue: > 20000 nM
//
compound: CN(C)S(=O)(=O)c1ccc(NC(=O)NCc2ccncc2)cc1
readoutValue: 2000 to 5000 nM
//
compound: O=C(NCc1ccncc1)Nc1ccc(C(=O)N2CCCC2)cc1
readoutValue: 5000 to 20000 nM
//
compound: COCCNC(=O)c1ccc(NC(=O)NCc2ccncc2)cc1
readoutValue: 2000 to 5000 nM
//
compound: O=C(NCc1ccncc1)Nc1ccc(S(=O)(=O)NCc2ccc(Cl)cc2)cc1
readoutValue: 100 to 2000 nM
//
compound: COCCNS(=O)(=O)c1ccc(NC(=O)NCc2ccncc2)cc1
readoutValue: 100 to 2000 nM
//
compound: O=C(NCc1ccncc1)Nc1ccc(C(=O)Nc2ccc(Cl)cc2)cc1
readoutValue: 100 to 2000 nM
//
compound: CCCNS(=O)(=O)c1ccc(NC(=O)NCc2ccncc2)cc1
readoutValue: 100 to 2000 nM
//
compound: O=C(NCc1ccncc1)Nc1ccc(S(=O)(=O)NCc2cccc(F)c2)cc1
readoutValue: 100 to 2000 nM
//
compound: O=C(NCc1ccncc1)Nc1ccc(C(=O)NCc2ccc(F)cc2)cc1
readoutValue: > 20000 nM
//
compound: CCOC(=O)c1ccc(NC(=O)NCc2ccnc(OC)c2)cc1
readoutValue: > 20000 nM
//
compound: CC(C)N(c1ccc(NC(=O)NCc2ccncc2)cc1)S(=O)(=O)c1ccccc1
readoutValue: 2000 to 5000 nM
//
compound: O=C(NCc1ccncc1)Nc1ccc(S(=O)(=O)NCc2ccccc2)cc1
readoutValue: 100 to 2000 nM
//
compound: O=C(NCc1ccncc1)Nc1ccc(S(=O)(=O)NC2CCOC2)cc1 (stereo not drawn)
readoutValue: 100 to 2000 nM
//
compound: CN(Cc1ccccc1Cl)S(=O)(=O)c1ccc(NC(=O)NCc2ccncc2)cc1
readoutValue: < 100 nM
//
compound: O=C(NCc1ccncc1)Nc1ccc(S(=O)(=O)N(Cc2ccccc2)CC(F)(F)F)cc1
readoutValue: < 100 nM
//
compound: O=C(NCc1ccncc1)Nc1ccc(C(=O)NCCc2ccc(F)cc2)cc1
readoutValue: 100 to 2000 nM
//
compound: Cc1ccccc1NC(=O)c1ccc(NC(=O)NCc2ccncc2)cc1
readoutValue: 100 to 2000 nM
//
compound: COc1ccc(NC(=O)c2ccc(NC(=O)NCc3ccncc3)cc2)cc1C
readoutValue: 100 to 2000 nM
//
compound: COC(=O)c1ccc(NC(=O)c2ccc(NC(=O)NCc3ccncc3)cc2)cc1
readoutValue: 100 to 2000 nM
//
compound: CN(Cc1ccccc1)C(=O)c1ccc(NC(=O)NCc2ccncc2)cc1
readoutValue: 100 to 2000 nM
//
compound: O=C(NCc1ccncc1)Nc1ccc(C(F)(F)F)cc1
readoutValue: 5000 to 20000 nM
//
compound: O=C(NCc1ccncc1)Nc1cccc(S(=O)(=O)NC2CCCC2)c1
readoutValue: > 20000 nM
//
compound: CN(C)c1ccccc1NC(=O)c1ccc(NC(=O)NCc2ccncc2)cc1
readoutValue: 100 to 2000 nM
//
compound: O=C(NCc1ccncc1)Nc1ccc(C(=O)Nc2ccc(OC(F)(F)F)cc2)cc1
readoutValue: 100 to 2000 nM
//
compound: O=C(NCc1ccncc1)Nc1ccc(C(=O)NCc2ccncc2)cc1
readoutValue: > 20000 nM

Origin of values: patent US11452717B2
